Recorded measurements of EC50, one per entry
Test system: HN5 cells
testMethodNotes: Roche Cell Death ELISAPlus apoptosis assay in HN5 cells (median effect and sensitization ratio analysis)
Type: cell-based
conditionLabel: Homo sapiens, HN5, 24 h; drug alone (Table 3); concentration giving 50% effect; read-out: Dm
property: EC50 (µM)

# compound, systemTested, reportedResult
measured = [
    ("CS(=O)(=O)CCNCc1ccc(-c2ccc3ncnc(Nc4ccc(OCc5cccc(F)c5)c(Br)c4)c3c2)o1", "HN5 cells", 15.9),
    ("O=c1cc(N2CCOCC2)oc2c(-c3ccccc3)cccc12 [LY294002, reference compound]", "HN5 cells", 123),
]

* * *

Below is a list of entries, each paired with its recorded IC50 value.
systemTested: AKT2 (Homo sapiens, UniProt P31751)
Sequence (P31751 whole entry, species assumed, canonical isoform): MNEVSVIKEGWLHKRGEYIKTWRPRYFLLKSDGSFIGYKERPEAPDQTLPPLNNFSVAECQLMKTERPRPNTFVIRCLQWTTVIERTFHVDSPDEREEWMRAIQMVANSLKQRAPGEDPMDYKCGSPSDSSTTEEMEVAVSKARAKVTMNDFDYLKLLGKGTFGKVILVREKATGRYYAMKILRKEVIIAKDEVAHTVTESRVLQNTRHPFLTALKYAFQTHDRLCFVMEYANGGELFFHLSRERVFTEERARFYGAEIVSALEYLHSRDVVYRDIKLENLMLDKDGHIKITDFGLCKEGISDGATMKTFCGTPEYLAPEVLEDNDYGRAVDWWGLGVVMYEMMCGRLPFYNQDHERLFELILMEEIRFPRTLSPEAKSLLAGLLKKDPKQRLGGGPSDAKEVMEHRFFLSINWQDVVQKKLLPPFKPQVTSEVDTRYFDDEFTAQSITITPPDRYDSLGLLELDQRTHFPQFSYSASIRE
testMethodNotes: Inhibition of AKT isoforms, enzyme IC50
Where a name gives a salt, the structure may show the parent alone.
property: IC50

# compound, systemTested, property, reportedResult
measured = [
    ("CCn1c(-c2nonc2N)nc2cncc(OC3CCNCC3)c21 [Ex 9 (tri-HCl salt)]", "AKT2 (Homo sapiens, UniProt P31751)", "IC50", "270 nM"),
    ("CCn1c(-c2nonc2N)nc2c(-c3cccc(Cl)c3)ncc(OCCCCN)c21.O=C(O)C(F)(F)F [Ex 12, trifluoroacetate]", "AKT2 (Homo sapiens, UniProt P31751)", "IC50", "40 nM"),
    ("CCn1c(-c2nonc2N)nc2c(-c3cccc(Cl)c3)ncc(OCC3CCNCC3)c21.O=C(O)C(F)(F)F [Ex 11, trifluoroacetate]", "AKT2 (Homo sapiens, UniProt P31751)", "IC50", "20 nM"),
    ("CCn1c(-c2nonc2N)nc2cncc(OC3CCNCC3)c21 [Ex 9]", "AKT2 (Homo sapiens, UniProt P31751)", "IC50", "390 nM"),
]

* * *

systemTested: AKT3 (Homo sapiens, UniProt Q9Y243)
Sequence (Q9Y243 whole entry, species assumed, canonical isoform): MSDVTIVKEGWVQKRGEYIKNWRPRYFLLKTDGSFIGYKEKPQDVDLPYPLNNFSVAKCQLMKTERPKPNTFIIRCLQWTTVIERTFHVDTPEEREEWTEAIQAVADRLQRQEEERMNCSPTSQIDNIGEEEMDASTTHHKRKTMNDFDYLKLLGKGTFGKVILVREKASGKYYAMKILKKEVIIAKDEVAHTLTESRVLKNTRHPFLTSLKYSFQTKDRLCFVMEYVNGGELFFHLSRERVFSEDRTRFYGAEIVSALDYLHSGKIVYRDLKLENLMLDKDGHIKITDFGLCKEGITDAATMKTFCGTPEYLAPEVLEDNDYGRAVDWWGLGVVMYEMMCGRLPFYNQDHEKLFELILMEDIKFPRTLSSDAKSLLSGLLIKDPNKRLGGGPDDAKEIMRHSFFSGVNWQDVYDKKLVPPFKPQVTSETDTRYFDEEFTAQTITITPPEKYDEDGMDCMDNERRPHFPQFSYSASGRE
testMethodNotes: Inhibition of AKT isoforms, enzyme IC50
pIC50: −log10 of the molar value. Where a name gives a salt, the structure may show the parent alone.

# compound, pIC50
measured = [
    ("CCn1c(-c2nonc2N)nc2cncc(OC3CCNCC3)c21 [Ex 9]", 6.39),
    ("CCn1c(-c2nonc2N)nc2cncc(OC3CCNCC3)c21 [Ex 9 (tri-HCl salt)]", 6.72),
    ("CCn1c(-c2nonc2N)nc2c(-c3cccc(Cl)c3)ncc(OCC3CCNCC3)c21.O=C(O)C(F)(F)F [Ex 11, trifluoroacetate]", 8.00),
]

* * *

Property: IC50; scope: individual compounds
systemTested: AKT1 (Homo sapiens)
Sequence (P31749 whole entry, species assumed, canonical isoform): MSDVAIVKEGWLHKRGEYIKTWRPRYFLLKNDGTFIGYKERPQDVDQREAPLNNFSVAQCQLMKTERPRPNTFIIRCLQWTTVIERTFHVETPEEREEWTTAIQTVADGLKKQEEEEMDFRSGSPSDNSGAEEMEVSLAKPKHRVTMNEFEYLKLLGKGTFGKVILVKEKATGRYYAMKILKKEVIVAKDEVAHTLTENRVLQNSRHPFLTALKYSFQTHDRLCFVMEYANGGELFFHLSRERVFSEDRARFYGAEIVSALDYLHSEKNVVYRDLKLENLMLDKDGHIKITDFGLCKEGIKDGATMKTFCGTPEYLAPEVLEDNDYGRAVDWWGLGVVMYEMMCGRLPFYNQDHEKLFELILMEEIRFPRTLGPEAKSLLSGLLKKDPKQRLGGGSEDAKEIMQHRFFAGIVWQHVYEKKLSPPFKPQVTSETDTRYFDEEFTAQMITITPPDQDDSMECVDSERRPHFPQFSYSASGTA
testMethodNotes: Inhibition of AKT isoforms, enzyme IC50

# compound, IC50 (nM)
records = [
    ("CCn1c(-c2nonc2N)nc2c(-c3cccc(Cl)c3)ncc(OCC3CCNCC3)c21.O=C(O)C(F)(F)F [Ex 11, trifluoroacetate]", 30),
    ("CCn1c(-c2nonc2N)nc2cncc(OC3CCNCC3)c21 [Ex 9]", 130),
    ("Nc1nonc1-c1nc2c(-c3cccc(Cl)c3)ncc(C(=O)NCCNCc3ccccc3)c2n1CC1CC1.O=C(O)C(F)(F)F [Ex 8, trifluoroacetate salt]", 8320),
    ("CCn1c(-c2nonc2N)nc2c(-c3cccc(Cl)c3)ncc(OCCCCN)c21.O=C(O)C(F)(F)F [Ex 12, trifluoroacetate]", 40),
]
